// provenance: patent US20250163127A1

Exercise: state measured % CD25 Hi FoxP3 + for each of the binders provided.
Biological target: PD-1 (human, UniProt Q15116)
Assay: cell-based or functional assay
Give the value in % at 100 nM but do not write % at 100 nM after it.

## Input Consider the binder PD-L1 303-COMP (other) FTVTVPKDLYVVEYGSNMTIECKFPVEKQLDLAALIVYWEMEGKDIIQFVHGEEDQKAQHSSYRQRARLLKDQLSLGNAALQITDVKLQDAGVYRCMISYGGGADYKRITVKVNAGGGGSGGGGSGGGGSDLGPQMLRELQETNAALQDVRELLRQQVREITFLKNTVMECDACGDYKDDDDKHHHHHH and give its measured % CD25 Hi FoxP3 +.
## Output 23.5

## Input Also need PD-L1 303-ICOSL 2264-PD-L1 303 (other) FTVTVPKDLYVVEYGSNMTIECKFPVEKQLDLAALIVYWEMEGKDIIQFVHGEEDQKAQHSSYRQRARLLKDQLSLGNAALQITDVKLQDAGVYRCMISYGGGADYKRITVKVNAGGGGSGGGGSGGGGSDTQEKEVRAMVGSDVELSCACPEGSRFDLNDVYVYWQTSESKTVVTYHIPQHSSLEYVDSRYRNRALMSPAGMLRGDFSLRLFNVTPQDEQKFHCLVLSRSLGFQEVLSVEVTLHVAANFSVGGGGSGGGGSGGGGSFTVTVPKDLYVVEYGSNMTIECKFPVEKQLDLAALIVYWEMEGKDIIQFVHGEEDQKAQHSSYRQRARLLKDQLSLGNAALQITDVKLQDAGVYRCMISYGGGADYKRITVKVNADYKDDDDKHHHHHH , thanks.
## Output 23.2

## Input And for PD-L1 303-ICOSL 2264-COMP (other) FTVTVPKDLYVVEYGSNMTIECKFPVEKQLDLAALIVYWEMEGKDIIQFVHGEEDQKAQHSSYRQRARLLKDQLSLGNAALQITDVKLQDAGVYRCMISYGGGADYKRITVKVNAGGGGSGGGGSGGGGSDTQEKEVRAMVGSDVELSCACPEGSRFDLNDVYVYWQTSESKTVVTYHIPQHSSLEYVDSRYRNRALMSPAGMLRGDFSLRLFNVTPQDEQKFHCLVLSRSLGFQEVLSVEVTLHVAANFSVGGGGSGGGGSGGGGSDLGPQMLRELQETNAALQDVRELLRQQVREITFLKNTVMECDACGDYKDDDDKHHHHHH ?
## Output 21

## Input Consider next the binder PD-L1 303-Fc (SEQ ID NO 3531) (Fc fusion) FTVTVPKDLYVVEYGSNMTIECKFPVEKQLDLAALIVYWEMEGKDIIQFVHGEEDQKAQHSSYRQRARLLKDQLSLGNAALQITDVKLQDAGVYRCMISYGGGADYKRITVKVNAGGGGSGGGGSEPKSSDKTHTCPPCPAPEAEGAPSVFLFPPKPKDTLMISRTPEVTCVVVDVSHEDPEVKFNWYVDGVEVHNAKTKPREEQYNSTYRVVSVLTVLHQDWLNGKEYKCKVSNKALPAPIEKTISKAKGQPREPQVYTLPPCREEMTKNQVSLWCLVKGFYPSDIAVEWESNGQPENNYKTTPPVLDSDGSFFLYSKLTVDKSRWQQGNVFSCSVMHEALHNHYTQKSLSLSPG in the same way.
## Output 24.8

## Input Next record, please: PD-L1 303-ICOSL 2264 (SEQ ID NO 3496) (other) FTVTVPKDLYVVEYGSNMTIECKFPVEKQLDLAALIVYWEMEGKDIIQFVHGEEDQKAQHSSYRQRARLLKDQLSLGNAALQITDVKLQDAGVYRCMISYGGGADYKRITVKVNAGSGGSGGGGSGGGGSDTQEKEVRAMVGSDVELSCACPEGSRFDLNDVYVYWQTSESKTVVTYHIPQHSSLEYVDSRYRNRALMSPAGMLRGDFSLRLFNVTPQDEQKFHCLVLSRSLGFQEVLSVEVTLHVAANFSVDYKDDDDKHHHHHH
## Output 21.7
